Where do the numbers come from? From paper PMC10764114.

Assay: MTT assay, cytotoxicity against normal HEK293 cells
Assay type: cell-based, human
Settings: human, HEK293 cells
// boundary case: viability at 48 h, 40 μM equal to 60% maps to rule not met; strictly smaller maps to rule met

Solved cases (4 shown):
compound: COc1cccc(C=NNC(=O)COc2ccc(C=NNC(=O)C(C)c3ccc(CC(C)C)cc3)cc2)c1 (stereo not drawn)
class-assignment: rule met
--
compound: CC(C)Cc1ccc(C(C)C(=O)NN=Cc2ccc(OCC(=O)NN=Cc3cc(Br)c(O)c(Br)c3)cc2)cc1 (stereo not drawn)
class-assignment: rule met
--
compound: CC(C)Cc1ccc(C(C)C(=O)NN=Cc2ccc(OCC(=O)NN=Cc3ccc(Br)cc3F)cc2)cc1 (stereo not drawn)
class-assignment: rule met
--
compound: COc1ccc(C=NNC(=O)COc2ccc(C=NNC(=O)C(C)c3ccc(CC(C)C)cc3)cc2)c(OC)c1 (stereo not drawn)
class-assignment: rule not met

Okay, next one:
INPUT: Item CC(C)Cc1ccc(C(C)C(=O)NN=Cc2ccc(OCC(=O)NN=Cc3ccc(Cl)cc3Cl)cc2)cc1 (stereo not drawn) : viability at 48 h, 40 μM beneath 60%, strictly?
OUTPUT: rule not met

----------
Assay: MTT assay, cytotoxicity against normal HEK293 cells
Format: cell-based, human
Details: human, HEK293 cells
# note: exactly 70% is not below, so it is no (0); use yes (1) for viability at 48 h, 10 μM strictly under it

compound: CC(C)Cc1ccc(C(C)C(=O)NN=Cc2ccc(OCC(=O)NN=Cc3ccc(Cl)cc3Cl)cc2)cc1 (stereo not shown) [5h]
class-assignment: no (0)
//
compound: CCN(CC)c1ccc(C=NNC(=O)COc2ccc(C=NNC(=O)C(C)c3ccc(CC(C)C)cc3)cc2)cc1 (stereo not shown) [5o]
class-assignment: yes (1)
//
compound: COc1ccc(C=NNC(=O)COc2ccc(C=NNC(=O)C(C)c3ccc(CC(C)C)cc3)cc2)c(OC)c1 (stereo not shown) [5f]
class-assignment: no (0)
//
compound: CC(C)Cc1ccc(C(C)C(=O)NN=Cc2ccc(OCC(=O)NN=Cc3ccccc3O)cc2)cc1 (stereo not shown) [5r]
class-assignment: yes (1)

INPUT: viability at 48 h, 10 μM strictly < 70% for this compound? COc1cccc(C=NNC(=O)COc2ccc(C=NNC(=O)C(C)c3ccc(CC(C)C)cc3)cc2)c1 (stereo not shown) [5p]
OUTPUT: yes (1)

----------
Test: MTT assay, cytotoxicity against normal HEK293 cells
Type: cell-based, human
Details: human, HEK293 cells
assay-readout: viability at 48 h, 40 μM (%)
Give bare numbers, in %.

Record excerpt, results attached:
molecule: COc1ccc(C=NNC(=O)COc2ccc(C=NNC(=O)C(C)c3ccc(CC(C)C)cc3)cc2)cc1OC (stereo not shown) [5l]
endpoint-unit: %
viability at 48 h, 40 μM: 28.1

molecule: CC(C)Cc1ccc(C(C)C(=O)NN=Cc2ccc(OCC(=O)NN=Cc3ccc(F)cc3)cc2)cc1 (stereo not shown) [5q]
endpoint-unit: %
viability at 48 h, 40 μM: 25.4

molecule: COc1ccc(C=NNC(=O)COc2ccc(C=NNC(=O)C(C)c3ccc(CC(C)C)cc3)cc2)cc1O (stereo not shown) [5n]
endpoint-unit: %
viability at 48 h, 40 μM: 28

Measured viability at 48 h, 40 μM of CC(C)Cc1ccc(C(C)C(=O)NN=Cc2ccc(OCC(=O)NN=Cc3ccccc3O)cc2)cc1 (stereo not shown) [5r] : 33.6
